Source listed as ChEMBL document CHEMBL3988442.

# reported Percent Effect; entries follow
- target: Shiga toxin 2 (Escherichia coli O157:H7) (UniProt P09385+P09386)
- methodNotes: E. coli 0.157:H7 Shiga Toxin SOP - stx2 screening assay
- Format: functional
- Design: scale not given: direction of the effect not stated beside the values
- cond: 30 µM
measurementName: Percent Effect (%)

- molecule: "Cn1c(CC2CCS(=O)(=O)C2)nnc1SCCOc1cccc(Cl)c1 (centres undefined)"
  measurementName: "Percent Effect"
  measured: -13
- molecule: "CCN1CCC2(C=C(C(=O)NC3CC3)c3ccccc32)CC1"
  measurementName: "Percent Effect"
  measured: 1.55
- molecule: "Cc1cnn(CC2CCCN2C(=O)c2ccc3cc[nH]c3c2)c1 (centres undefined)"
  measurementName: "Percent Effect"
  measured: 1.09
- molecule: "CCOc1ccc(S(=O)(=O)NCc2cccnc2N(C)C)cc1"
  measurementName: "Percent Effect"
  measured: -16.7
- molecule: "CCN(Cc1ccc2c(c1)OCO2)C(=O)c1ccc(C)[nH]c1=O"
  measurementName: "Percent Effect"
  measured: -16
- molecule: "CO[C@H]1CN(C(=O)c2ccc3oc(C)cc3c2)CC[C@@]12CCCO2"
  measurementName: "Percent Effect"
  measured: 7.39
- molecule: "O=C(C1CCOC1)N1CC[C@@H](O)[C@@H]1Cc1ccccc1 (some centres undefined)"
  measurementName: "Percent Effect"
  measured: -16.7
- molecule: "Cc1nn(C)c(C)c1NC(=O)CCn1ncc2c(C)cccc21"
  measurementName: "Percent Effect"
  measured: -31.5
- molecule: "COc1cc(N2CCCC(c3nccn3Cc3cscn3)C2)nc(N)n1 (centres undefined)"
  measurementName: "Percent Effect"
  measured: 14.5
- molecule: "CNc1cncc(C2CCCN2C(=O)c2ccc3oc(C)cc3c2)n1 (centres undefined)"
  measurementName: "Percent Effect"
  measured: -4.12
- molecule: "O=C(Nc1ccnc(OC2CCOC2)c1)C1CCC1 (centres undefined)"
  measurementName: "Percent Effect"
  measured: -20.1
- molecule: "CCOC(=O)N1CCN(C(=O)c2sc(-c3ccccc3F)nc2C)CC1"
  measurementName: "Percent Effect"
  measured: -8.58
- molecule: "CN(C)CCNC(=O)c1cnc2c(c1)nc(-c1ccccc1Cl)n2C"
  measurementName: "Percent Effect"
  measured: 5.62
- molecule: "CC(=O)N1CCN(C(=O)NCc2csc(Br)c2)CC1"
  measurementName: "Percent Effect"
  measured: 5.42
- molecule: "CN(C)c1ccccc1C(=O)N1C[C@@H](CN2CCCCC2)[C@@H](CO)C1"
  measurementName: "Percent Effect"
  measured: 17.7
- molecule: "Cc1cc2cc(C(=O)N[C@@H]3CC[C@@H](N4CCOCC4)[C@@H]3O)ccc2o1"
  measurementName: "Percent Effect"
  measured: 4.91
- molecule: "CC(NC(=O)NCCNc1ncccn1)c1cccs1 (centres undefined)"
  measurementName: "Percent Effect"
  measured: -27.7
- molecule: "Cc1noc(C)c1CCC(=O)N1CCCN(Cc2cscn2)CC1"
  measurementName: "Percent Effect"
  measured: 27.4
- molecule: "CC(=O)N1CCC(C(=O)c2cc(C)cnc2N)CC1"
  measurementName: "Percent Effect"
  measured: -6.78
- molecule: "Cc1cnn(CCNCc2nc(COc3ccc(F)cc3)no2)c1"
  measurementName: "Percent Effect"
  measured: 16.3
- molecule: "CC(O)CN1CCC(CNCc2cccc(Br)c2)CC1 (centres undefined)"
  measurementName: "Percent Effect"
  measured: 18.9
- molecule: "C1CC(NCc2nc(C3CC3)no2)CN(Cc2noc(C3CC3)n2)C1 (centres undefined)"
  measurementName: "Percent Effect"
  measured: 13.3
- molecule: "O=C1CCC2(CCCN(c3ncc(F)cn3)CC2)N1CC1CC1 (centres undefined)"
  measurementName: "Percent Effect"
  measured: -3.81
- molecule: "COc1ccc(-n2ccc(C(=O)N3CCN(C)CC3C)n2)cc1 (centres undefined)"
  measurementName: "Percent Effect"
  measured: -0.158
